Target: human CSNK1D (Homo sapiens)
Test: Whole Cell nBRET CSNK1D Binding Assay
Conditions: living CHO cells stably expressing human CSNK1D tagged with nanoluciferase; NanoBret tracer 130 nM; 2 hours at 37 C
assayEndpoint: IC50 (nM)

molecule="CC1COc2c(-c3ccn4nccc4c3)c(-c3ccc(F)cn3)nn2C1 (centres unmarked) [Example 443]" studytarget="human CSNK1D (Homo sapiens)" val=581
molecule="Fc1ccc(-c2nn3c(c2-c2c(F)cnc4[nH]ncc24)OCC2(C3)CC2(F)F)cc1 (centres unmarked) [Example 471]" studytarget="human CSNK1D (Homo sapiens)" val=3
molecule="Fc1ccc(-c2nn3c(c2-c2ccnc4[nH]ccc24)COCC3)cc1 [Example 69]" studytarget="human CSNK1D (Homo sapiens)" val=43
molecule="COCC1(C)CCc2c(-c3cc(C)nc4[nH]ncc34)c(-c3ccc(F)cn3)nn2C1 (single isomer, unassigned) [Example 56]" studytarget="human CSNK1D (Homo sapiens)" val=63
molecule="Cc1cc(-c2c(-c3ccc(F)cc3)nn3c2C[C@H](F)C3)c2cn[nH]c2n1 [Example 12]" studytarget="human CSNK1D (Homo sapiens)" val=2
molecule="COC[C@@]1(C)CCc2c(-c3cc(C)nc4[nH]ncc34)c(-c3ccc(F)cn3)nn2C1 (single isomer, unassigned) [Example 55]" studytarget="human CSNK1D (Homo sapiens)" val=125

1 = Cc1cc(-c2c(-c3ccc(F)cn3)nn3c2CCCC3)c2cn[nH]c2n1 [Example 36]
2 = CC1(C)COc2c(-c3ccnc4cc[nH]c34)c(-c3ccc(F)cc3)nn2C1 [Example 448]
Request: Among 1 and 2 , whose measured IC50 is the smaller figure? Reply with the label of the item you choose.
Response: 1

* * *

Target: human CSNK1D (Homo sapiens)
Experiment: Whole Cell nBRET CSNK1D Binding Assay
Details: living CHO cells stably expressing human CSNK1D tagged with nanoluciferase; NanoBret tracer 130 nM; 2 hours at 37 C
pIC50: −log10 of the molar value.
assayEndpoint: pIC50

# annotated cases, reported pIC50 shown
molecule="Fc1ccc(-c2nn3c(c2-c2ccn4nccc4c2)CC[C@H]2[C@@H]3C2(F)F)cc1 (stereo in doubt) [Example 353]" val=5.42
molecule="CCC(=O)Nc1cc(-c2c(-c3ccc(F)cn3)nn3c2OCCC3C)ccn1 (centres unmarked) [Example 445]" val=6.68
molecule="CC1(CF)CCc2c(-c3ccncc3)c(-c3ccc(F)cn3)nn2C1 (single isomer, unassigned) [Example 284]" val=7.17
molecule="CC1(C)COc2c(-c3ccnc4cn[nH]c34)c(-c3ccc(F)cn3)nn2C1 [Example 454]" val=6.90
molecule="CC(=O)Nc1cc(-c2c(-c3ccc(F)cn3)nn3c2CC[C@H]2[C@@H]3C2(F)F)ccn1 (stereo in doubt) [Example 351]" val=7.70
molecule="Cc1cc(-c2c(-c3ccc(F)cn3)nn3c2O[C@@H](C)C[C@@H]3C)c2cn[nH]c2n1 (single isomer, unassigned) [Example 209]" val=6.78

I = Cc1nc2[nH]ncc2c(-c2c(-c3ccc(F)cn3)nn3c2COC(C)(C)C3)c1F [Example 157]
II = Cc1cc(-c2c(-c3cncc(F)c3)nn3c2COCC3)c2cn[nH]c2n1 [Example 77]
Request: Among I and II , whose measured pIC50 is the smaller figure? Reply with the label of the item you choose.
Response: II

* * *

Biological target: human recombinant GST cleaved CSNK1D (Homo sapiens, UniProt P48730)
Construct: GST (cleaved yes)
Sequence (P48730 whole entry): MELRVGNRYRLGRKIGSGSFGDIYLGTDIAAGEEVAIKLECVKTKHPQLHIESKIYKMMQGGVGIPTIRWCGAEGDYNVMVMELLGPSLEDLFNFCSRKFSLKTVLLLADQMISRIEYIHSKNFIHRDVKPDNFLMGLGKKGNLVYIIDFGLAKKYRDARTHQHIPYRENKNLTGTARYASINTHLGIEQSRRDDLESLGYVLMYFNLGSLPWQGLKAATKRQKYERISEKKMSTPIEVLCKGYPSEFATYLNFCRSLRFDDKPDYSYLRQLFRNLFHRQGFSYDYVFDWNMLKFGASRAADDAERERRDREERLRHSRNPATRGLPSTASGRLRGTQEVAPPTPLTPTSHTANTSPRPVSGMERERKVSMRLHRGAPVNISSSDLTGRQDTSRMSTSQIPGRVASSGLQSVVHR
Experiment: Purified Enzyme Assay (ADP-Glo CSNK1D Kinase Assay)
Conditions: 2 nM CSNK1D; peptide substrate 150 μM; ATP 20 μM; 45 minutes at room temperature
assayEndpoint: IC50 (nM)

structuresmiles=CC1(C)CCc2c(-c3ccnc4[nH]ncc34)c(-c3ccc(F)cn3)nn2C1 assayendpoint=IC50 unittext=nM val=1

P = CC1(C)Cn2nc(-c3ccc(F)cn3)c(-c3ccnc(NC(=O)c4ccccc4)c3)c2CO1
Q = Cc1cc(-c2c(-c3ccc(F)cn3)nn3c2CCC3)c2cn[nH]c2n1
R = Cc1cc(-c2c(-c3ccc(F)cc3)nn3c2COC(C)(C)C3)c2cn[nH]c2n1
Request: rank_up(items): orders items by reported IC50 in ascending numerical order. Sort and list the labels as requested.
Response: R, P, Q

* * *

Target: human CSNK1D (Homo sapiens, UniProt P48730)
Assay: Whole Cell nBRET CSNK1D Binding Assay
Details: living CHO cells stably expressing human CSNK1D tagged with nanoluciferase; NanoBret tracer 130 nM; 2 hours at 37 C
pIC50: −log10 of the molar value.
assayEndpoint: pIC50

P = C[C@H]1n2nc(-c3ccc(F)cn3)c(-c3ccnc4[nH]ncc34)c2COC1(C)C (single isomer, unassigned)
Q = [2H]C([2H])([2H])C1(C([2H])([2H])[2H])Cn2nc(-c3ccc(F)cn3)c(-c3cc(C)nc4[nH]nc(Cl)c34)c2CO1
Request: Among P and Q , whose measured pIC50 is the smaller figure? Reply with the label of the item you choose.
Response: P
(P: 6.08, Q: 7.85)

* * *

Biological target: human recombinant GST cleaved CSNK1D (Homo sapiens, UniProt P48730)
Construct: GST (cleaved yes)
Assay: Purified Enzyme Assay (ADP-Glo CSNK1D Kinase Assay)
Details: 2 nM CSNK1D; peptide substrate 150 μM; ATP 20 μM; 45 minutes at room temperature
pIC50: −log10 of the molar value.
assayEndpoint: pIC50

# annotated cases, reported pIC50 shown
molecule="CC1(C)Cc2c(-c3ccnc4[nH]ncc34)c(-c3ccc(F)cn3)nn2C1 [Example 234]" val=8.70
molecule="Cc1cc(-c2c(-c3nccs3)nn3c2CCCC3)c2cn[nH]c2n1 [Example 30]" val=7.55
molecule="C[C@@H]1Cn2nc(-c3ccc(F)cn3)c(-c3ccnc4[nH]ncc34)c2CO1 (single isomer, unassigned) [Example 85]" val=7.66
molecule="Fc1ccc(-c2nn3c(c2-c2c(F)cnc4[nH]ncc24)OC[C@@H]2C[C@@H]2C3)nc1 (stereo in doubt) [Example 480]" val=8.00

1 = Cn1ncc2c(-c3c(-c4ccc(F)cn4)nn4c3COC(C)(C)C4)ccnc21 [Example 153]
2 = CC1(C)COc2c(-c3ccnc4cc[nH]c34)c(-c3ccc(F)cc3)nn2C1 [Example 448]
3 = CC1(C)Cn2nc(-c3ccc(F)cn3)c(-c3ccn4ncc(Cl)c4c3)c2CO1 [Example 384]
4 = Cc1nc(-c2c(-c3ccc(F)cc3)nn3c2OCC2(CC2)C3)c2cn[nH]c2n1 [Example 465]
Request: // sort entries: pIC50, high to low Sort and list the labels as requested.
Response: 4, 3, 2, 1
(4: 8.52, 3: 7.82, 2: 7.55, 1: 6.75)

* * *

Biological target: human CSNK1D (Homo sapiens)
Construct: expressed in transfected cells
Test: Whole Cell nBRET CSNK1D Binding Assay
Conditions: living CHO cells stably expressing human CSNK1D tagged with nanoluciferase; NanoBret tracer 130 nM; 2 hours at 37 C
pIC50: −log10 of the molar value.
assayEndpoint: pIC50

compound="C[C@@]1(CF)CCc2c(-c3ccnc4[nH]ncc34)c(-c3ccc(F)cn3)nn2C1 (single isomer, unassigned)" assayendpoint=pIC50 val=7.96
compound=CCC(=O)Nc1cc(-c2c(-c3ccc(F)cc3)nn3c2OCC2(CC2)C3)ccn1 assayendpoint=pIC50 val=9.00
compound=Cc1cc(-c2c(-c3ccc(F)cc3)nn3c2CC[C@H]3C)c2cn[nH]c2n1 assayendpoint=pIC50 val=7.72
compound=CC1(C)Cc2c(-c3ccnc4[nH]nc(Cl)c34)c(-c3ccc(F)cn3)nn2C1 assayendpoint=pIC50 val=7.89

A = Cc1cc(-c2c(-c3nccs3)nn3c2CCCC3)c2cn[nH]c2n1
B = Fc1ccc(-c2nn3c(c2-c2c(F)cnc4[nH]ncc24)CC2(C3)CC2(F)F)nc1 (single isomer, unassigned) [Example 259]
C = Fc1ccc(-c2nn3c(c2-c2ccnc4[nH]ncc24)COC2(CC2)C3)nc1
D = Cc1cc(-c2c(-c3ccc(F)cc3)nn3c2C(C)(C)CC3)c2cn[nH]c2n1
E = Fc1ccc(-c2nn3c(c2-c2ccnc4[nH]ncc24)C[C@H](F)C3)cc1
Request: // sort entries: pIC50, high to low Sort and list the labels as requested.
Response: E, D, C, A, B

A = Fc1ccc(-c2nn3c(c2-c2ccnc4[nH]ncc24)COC(C(F)(F)F)C3)cc1 (stereo not drawn)
B = Fc1ccc(-c2nn3c(c2-c2ccnc4[nH]ncc24)C[C@H]2[C@@H](C3)C2(F)F)cc1 (stereo in doubt)
C = Cc1cc(-c2c(-c3ccc(F)cc3)nn3c2COC(C)(C)C3)c2cn[nH]c2n1
D = [2H]C([2H])([2H])OC([2H])([2H])[C@@]1(F)CCc2c(-c3cc(C)nc4[nH]ncc34)c(-c3ccc(F)cn3)nn2C1 (single isomer, unassigned)
Request: // sort entries: pIC50, high to low Sort and list the labels as requested.
Response: C, A, B, D

a = Cc1n[nH]c2nccc(-c3c(-c4ccc(F)cc4)nn4c3OCC3(C4)CC3(F)F)c12 (single isomer, unassigned) [Example 473]
b = Cc1cc(-c2c(-c3ccc(F)cc3)nn3c2CC(C)(C)C3)c2cn[nH]c2n1
Request: Among a and b , whose measured pIC50 is the smaller figure? Reply with the label of the item you choose.
Response: a
(a: 8.22, b: 8.52)

Every entry's value here was drawn from patent US20230339970A1.
